Values were extracted from patent US10092000B2.

test: Transient absorption spectroscopy (triplet state); type: physicochemical
VALUE_KIND: transient absorption (TA) intensity, comparison in words

{"columns": ["STRUCTURE_SMILES", "RESULT_VALUE"],
 "data": [
  ["O=S(=O)([O-])CCCOc1ccc(C#Cc2ccc(C#Cc3ccc(OCCCS(=O)(=O)[O-])cc3)cc2)cc1.[Na+].[Na+]", "comparable"],
  ["C[N+](C)(C)CCCOc1ccc(C#Cc2ccc(C#Cc3ccc(OCCC[N+](C)(C)C)cc3)cc2)cc1.[I-].[I-]", "comparable"],
  ["C[N+](C)(C)CCOc1ccc(C#Cc2ccc(C#Cc3ccc(OCC[N+](C)(C)C)cc3)cc2)cc1.[I-].[I-]", "comparable"]
]}
